- target-entity: Bcr-Abl (Homo sapiens, UniProt P00519)
- Construct: host or cells: murine myeloid progenitor cell line 32Dcl3 (32D-bcr/abl); the other entry of the earlier key: BCR (P11274, Breakpoint cluster region protein)
- Sequence (P00519 28-1130 limits assumed): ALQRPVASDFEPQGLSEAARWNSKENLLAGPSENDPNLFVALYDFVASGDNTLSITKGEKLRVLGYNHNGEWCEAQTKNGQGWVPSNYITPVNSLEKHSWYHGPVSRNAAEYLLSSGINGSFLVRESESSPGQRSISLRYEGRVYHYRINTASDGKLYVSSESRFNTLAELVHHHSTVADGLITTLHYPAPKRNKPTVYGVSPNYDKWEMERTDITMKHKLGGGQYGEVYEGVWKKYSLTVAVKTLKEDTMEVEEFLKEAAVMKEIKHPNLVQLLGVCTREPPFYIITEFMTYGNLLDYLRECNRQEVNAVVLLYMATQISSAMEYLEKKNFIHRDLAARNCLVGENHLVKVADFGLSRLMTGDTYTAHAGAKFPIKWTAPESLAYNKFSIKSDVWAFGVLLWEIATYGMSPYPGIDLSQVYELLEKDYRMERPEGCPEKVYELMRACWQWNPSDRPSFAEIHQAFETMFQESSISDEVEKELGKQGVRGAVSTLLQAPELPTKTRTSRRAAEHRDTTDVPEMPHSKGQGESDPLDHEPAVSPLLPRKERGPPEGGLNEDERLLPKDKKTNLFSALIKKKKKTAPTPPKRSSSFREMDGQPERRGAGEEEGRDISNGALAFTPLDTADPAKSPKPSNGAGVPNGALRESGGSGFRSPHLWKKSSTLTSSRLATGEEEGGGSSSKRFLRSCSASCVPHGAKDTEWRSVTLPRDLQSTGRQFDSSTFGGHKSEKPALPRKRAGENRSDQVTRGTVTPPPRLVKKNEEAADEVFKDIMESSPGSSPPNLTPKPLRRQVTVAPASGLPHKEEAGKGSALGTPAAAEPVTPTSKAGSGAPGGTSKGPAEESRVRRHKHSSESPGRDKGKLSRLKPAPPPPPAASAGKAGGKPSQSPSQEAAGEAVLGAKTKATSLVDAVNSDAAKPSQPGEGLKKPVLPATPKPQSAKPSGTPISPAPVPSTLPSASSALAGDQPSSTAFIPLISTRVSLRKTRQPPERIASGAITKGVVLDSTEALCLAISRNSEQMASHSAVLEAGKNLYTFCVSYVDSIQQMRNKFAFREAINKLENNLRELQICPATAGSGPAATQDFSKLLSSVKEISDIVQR
- protocol-summary: Test for activity against Bcr-Abl (phosphorylation ELISA in 32D-bcr/abl cells)
- Format: cell-based, murine
- condition-parameters: 32D cells transfected with p210 Bcr-Abl; ELISA of Bcr-Abl phosphorylation; read-out: bcrabl32DcEL/ Average<32Dp210IC50 [umol l−1]>
pIC50: −log10 of the molar value.
quantity-kind: pIC50

Use these answered entries as a reference point.
CN(C)c1ncnc2[nH]c(-c3ccc(Cn4ccnc4)cc3)cc12 [Example 24] = 6.10
CCCN(C)c1ncnc2[nH]c(-c3ccc(CN4CCN(C)CC4)cc3)cc12 [Example 19] = 5.68
CCCNc1ncnc2[nH]c(-c3ccc(CN4CCN(C)CC4)cc3)cc12 [Example 18] = 6.03
CN(C)c1ncnc2[nH]c(-c3ccc(C(=O)N4CCOCC4)cc3)cc12 [Example 6] = 6.03
CN1CCN(C(=O)c2ccc(-c3cc4c(N(C)C)ncnc4[nH]3)cc2)CC1 [Example 3] = 6.10

I: CN(C)c1ncnc2[nH]c(-c3ccc(CNCCCO)cc3)cc12 [Example 28]
II: CCCNc1ncnc2[nH]c(-c3ccc(C(=O)N4CCN(C)CC4)cc3)cc12 [Example 17]
III: CN(C)c1ncnc2[nH]c(-c3ccc(C(C)(C)O)cc3)cc12 [Example 34]
IV: CNc1ncnc2[nH]c(-c3ccc(CN4CCN(C)CC4)cc3)cc12 [Example 16]
In: Endpoint returns the given molecules ordered by ascending pIC50. Sort and list the labels as requested.
Out: II, III, I, IV
(II: 5.79, III: 6.03, I: 6.39, IV: 7.29)

A: COCCN(C)Cc1ccc(-c2cc3c(N(C)C)ncnc3[nH]2)cc1 [Example 29]
B: CN(C)c1ncnc2[nH]c(-c3ccc(Cn4cnnn4)cc3)cc12 [Example 27]
C: CCC(O)(CC)c1ccc(-c2cc3c(NCCCn4cccc4)ncnc3[nH]2)cc1 [Example 33]
In: Endpoint returns the given molecules ordered by ascending pIC50. Sort and list the labels as requested.
Out: C, B, A
(C: 5.61, B: 6.04, A: 6.56)
